TARGET DESC: HLA-DR DRB1*0405 (DR4) (Homo sapiens, UniProt P01903+P01911, A100R/A169T/D86S/F76Y/I96L/K127E/L162R/M171V/N62H/P40V/Q125Y/R42H/S133A/S149N/S66Y/V115G/V209L/W38E)
ASSAY NAME: biochemical
Assay type: binding
MEASUREMENT SETUP: read-out: DRB1 *0405
As shown below, each of these sequences has a reported IC50 value.
OBSERVED PROPERTY: IC50 (nM)

YDFVFADLRIVYRNG 829
VASLLTTAEVVVTE 6520
MLDLQPETTDLYCYE 4250
CCTSICSLYQLENY 629
IQQLLMGTVNIYCPT 624
KKPLNEILIRCIICQ 347
EFAFKDLFVVYRDS 33
